# Tested on: tonic extensor spasm of the rear legs of male mice under maximum electric shock
# testMethodNotes: Anticonvulsant activity in mice (inhibition of tonic extensor spasm under maximum electric shock)
# Format: in vivo, male SPF mice (Chbb:NMRI)
# assayContext: Mus musculus, po, 5 h, p.o., shock 300 minutes after administration, 10 mice/dose, read-out: ED50, 300 minutes
# Procedure: 1. Anticonvulsant activity in mice The anticonvulsant activity was tested as the inhibition of the tonic extensor spasm of the rear legs of male mice under maximum electric shock. The test animals were male SPF mice (Chbb:NMRI) weighing 20 to 26 g which, up to one hour before oral administration of the test compound, had access to standard feed and drinking water. The test procedure was based on that of SWINYARD, BROWN and GOODMAN (J. Pharmacol. Exp. Ther. 106, 319 [1952]). […]
endpointLabel: ED50 (mg/kg)

[[record]]
samplesmiles = "N/C(=C1/Sc2ccccc2C1=O)c1ccccc1Cl"
endpointlabel = "ED50"
readoutvalue = 5

[[record]]
samplesmiles = "CCN/C(=C1/Sc2ccccc2C1=O)c1ccccc1"
endpointlabel = "ED50"
readoutvalue = 79

[[record]]
samplesmiles = "N/C(=C1/Sc2ccccc2C1=O)c1ccccc1"
endpointlabel = "ED50"
readoutvalue = 46

[[record]]
samplesmiles = "CN/C(=C1/Sc2ccccc2C1=O)c1ccccc1"
endpointlabel = "ED50"
readoutvalue = 49

[[record]]
samplesmiles = "Cc1ccccc1/C(N)=C1\\Sc2ccccc2C1=O"
endpointlabel = "ED50"
readoutvalue = 15.7

[[record]]
samplesmiles = "O=C1/C(=C(\\NCCO)c2ccccc2)Sc2ccccc21"
endpointlabel = "ED50"
readoutvalue = 42.5


---

# testMethodNotes: Orienting acute toxicity in mice
# assayContext: mouse, in vivo, po, observation period 7 days
The compounds listed here are annotated with their LD50 at 168 h.
endpointLabel: LD50 at 168 h

[[record]]
compound = "Cc1ccccc1/C(N)=C1\\Sc2ccccc2C1=O [E]"
readoutvalue = "> 1000 mg/kg"

[[record]]
compound = "N/C(=C1/Sc2ccccc2C1=O)c1ccccc1 [A]"
readoutvalue = "2400 mg/kg"

[[record]]
compound = "N/C(=C1/Sc2ccccc2C1=O)c1ccccc1Cl [C]"
readoutvalue = "500 to 1000 mg/kg"

[[record]]
compound = "CCN/C(=C1/Sc2ccccc2C1=O)c1ccccc1 [F]"
readoutvalue = "> 1000 mg/kg"

[[record]]
compound = "O=C1/C(=C(\\NCCO)c2ccccc2)Sc2ccccc21 [D]"
readoutvalue = "> 1000 mg/kg"

[[record]]
compound = "CN/C(=C1/Sc2ccccc2C1=O)c1ccccc1 [B]"
readoutvalue = "> 1000 mg/kg"

